Tested on: HL60/ADR cells
Experiment: Reversal of MRP-mediated MDR in HL60/ADR cells (doxorubicin with or without MDR inhibitor)
Type: cell-based
Conditions: ratio at 1.0 μM Cpd; HL60/ADR
property: Fold reversal (IC50 doxorubicin alone / IC50 doxorubicin + MDR inhibitor)

COc1cc(C(=O)C(=O)N(C)[C@@H](Cc2ccccc2)C(=O)O[C@H]2CCCc3ccc(OCc4ccncc4)cc32)cc(OC)c1OC [Compound 21]    3.2

a. COc1cc(C(=O)C(=O)N2CCCC[C@H]2C(=O)O[C@H]2CCCc3ccc(OCc4ccncc4)cc32)cc(OC)c1OC [Compound 6]
b. COc1cc(C(=O)C(=O)N2Cc3ccccc3C[C@H]2C(=O)O[C@@H]2CCCc3ccc(OCc4ccncc4)cc32)cc(OC)c1OC [Compound 17]
Which of the two gives a bigger number for Fold reversal (IC50 doxorubicin alone / IC50 doxorubicin + MDR inhibitor): a or b ? Answer with the label corresponding to your selection.
b
(b: 11.7, a: 6.4)

###

Tested on: HL60/ADR cells
Test: Reversal of MRP-mediated MDR in HL60/ADR cells (doxorubicin with or without MDR inhibitor)
Type: cell-based
Conditions: Homo sapiens, 72 h; doxorubicin alone, control of the compound of the line; HL60/ADR cells, 3 days; read-out: IC50 DOX Alone
property: pIC50
The read-out pIC50 is expressed as -log10 of concentration in moles per litre.

Looking for the measured pIC50 of COc1cccc2c1C(=O)c1c(O)c3c(c(O)c1C2=O)C[C@@](O)(C(=O)CO)C[C@@H]3O[C@H]1C[C@H](N)[C@H](O)[C@H](C)O1 [DOX, doxorubicin, reference compound] , can you help?
5.46

###

Test system: L1210vDOX
Test: Reversal of MDR in L1210vDOX (MDR sensitization assay, doxorubicin with or without MDR inhibitor)
Type: cell-based, mouse
Conditions: IC50 of doxorubicin in presence of 1.0 μM Cpd, 3 days, read-out: IC50 DOX + 1.0 μM Cpd
This listing pairs molecules with measured pIC50.
Friendly reminder that pIC50 comes from taking -log10 of the concentration in mol/L.

Solved entries (count: 3):
COc1cc(C(=O)C(=O)N2CCCC[C@H]2C(=O)N[C@H]2CCCc3ccc(OCc4ccncc4)cc32)cc(OC)c1OC [Compound 11B]    6.49
COc1cc(C(=O)C(=O)N2CCCC[C@H]2C(=O)OC2CCCc3c(OCc4ccncc4)cccc32)cc(OC)c1OC (stereo partly shown) [Compound 9]    6.46
CCCOc1cc2c(c(OCCC)c1C)CC[C@H](Cc1cccnc1)[C@@H]2OC(=O)[C@@H]1CCCCN1C(=O)C(=O)c1cc(OC)c(OC)c(OC)c1 [Compound 29A]    6.72

Next:
Please give the measured pIC50 for this molecule: COc1cc(C(=O)C(=O)N2CCCC[C@H]2C(=O)N[C@@H]2CCCc3ccc(OCc4ccncc4)cc32)cc(OC)c1OC [Compound 11A]
6.46
